Ref: ChEMBL document CHEMBL3988442

Each entry below carries its recorded Percent Effect.
# experiment-description: In vitro enzyme assay to detect hydrolysis of chlorophenol red-beta-D-[…] directly proportional to the number of Toxoplasma stably expressing beta-galactosidase
# Type: functional, organism-based, Toxoplasma gondii
# Design: scale not given: in the data most compounds retested in dose-response had high values
# experimental-context: 50 µM
In all, about 85,000 compounds went through this assay and about 440 (0.52%) showed an effect of 50% or more. The list comes from a sample in which strong results are over-represented; it also holds close analogues and randomly drawn compounds.
The figure you give is taken to be in %; do not add the unit.

compound | assay-metric | observed
CCCc1cc(=O)[nH]c(C(C)(N)CC)n1 (configuration not stated) | Percent Effect | 0.6774
Cc1cc(NC(=O)c2ccc(F)cc2)[nH]n1 | Percent Effect | -8.221

Ask: For the compound `CC(C)NC(=O)CCN1CCC(CN2CCCC2)CC1` , give its measured Percent Effect value.
Result: 15.46

Ask: For the compound `CCc1nccn1CCNC(=O)Cn1nc(C)cc1N` , give its measured Percent Effect value.
Result: 0.7856

Ask: For the compound `Cc1oc(-c2ccccc2F)nc1C(=O)N(C)C` , give its measured Percent Effect value.
Result: -3.464

Ask: For the compound CC(C1CCN(Cc2c[nH]cn2)CC1)N1CCCC1 (configuration not stated) , give its measured Percent Effect value.
Result: 21.18

Ask: For the compound CCC(C)N(CC(=O)OC)Cc1nccn1C (configuration not stated) , give its measured Percent Effect value.
Result: 1.211

###

# experiment-description: In vitro enzyme assay to detect hydrolysis of chlorophenol red-beta-D-[…] directly proportional to the number of Toxoplasma stably expressing beta-galactosidase
# Format: functional, organism-based, Toxoplasma gondii
# Design: scale not given: in the data most compounds retested in dose-response had high values
# experimental-context: 50 µM
Screen size: about 85,000 compounds; about 440 (0.52%) showed an effect of 50% or more. The full list was thinned out, with strong results kept by preference.
Each entry below carries its recorded Percent Effect.
The figure you give is taken to be in %; do not add the unit.

Some entries whose results are on file:
molecule | readout-unit | Percent Effect
CCC(=O)c1cccc(OC)n1 | % | 98.31
Nc1c[nH]nc1-c1ccccn1 | % | 64.31
NC1CN(S(=O)(=O)c2ccc3c(c2)OCCO3)C1 | % | 61.03
CCS(=O)(=O)Nc1ccccc1F | % | 6.561
CC(=O)c1cccc(OCC(=O)NC2CCCC2)c1 | % | -4.665
CC(=O)Nc1ncc(Br)s1 | % | 8.521
CC(=O)c1cccc(OCC(=O)Nc2cc(C)on2)c1 | % | 98.67
NC(=O)C1CCN(c2ncnc3ccsc23)CC1 | % | 0.8525

Okay, next one:
Ask: For the molecule CCC(N)c1cccc(OC)n1 (centres undefined) , give its measured Percent Effect value.
Result: -11.92

###

# experiment-description: In vitro enzyme assay to detect hydrolysis of chlorophenol red-beta-D-[…] directly proportional to the number of Toxoplasma stably expressing beta-galactosidase
# Type: functional, organism-based, Toxoplasma gondii
# Set-up: scale not given: in the data most compounds retested in dose-response had high values
# experimental-context: 50 µM
About 440 (0.52%) of roughly 85,000 compounds showed an effect of 50% or more. This is one part of a sample in which strong results are shown more often than they occur.
assay-metric: Percent Effect

compound | Percent Effect
OC1(CNCCCn2cc(Cl)cn2)CCCNC1 (centres undefined) | -11.83%
Cc1cncc(C(=O)Nc2sc(C)cc2C(N)=O)c1 | 2.925%
N#Cc1ccc(CN)c(F)c1 | 29.17%
Cc1cncc(C(N)=O)c1 | 97.16%
COc1ncccc1-c1csc(NCCSC)n1 | 98.47%
CC(=O)NCC(=O)N1CCN(c2ccncc2Cl)CC1 | -5.39%
COc1ccc(C2NC(=O)c3cccnc3N2)cc1F (centres undefined) | 6.983%
NC(c1ccccc1)C1(CO)CCC1 (centres undefined) | 8.034%
CCCC(N)C(=O)N(C)Cc1cccc(N(C)C)c1 (centres undefined) | 89.59%
NCCN1CCc2c(Cl)cccc2C1=O | 17.2%

Ask: For the compound O=C1NC(c2cc[nH]n2)Nc2ncccc21 (centres undefined) , give its measured Percent Effect value.
Result: -9.997%

Ask: For the compound `O=C(NCc1cccc(Cl)c1)c1cnns1` , give its measured Percent Effect value.
Result: -15.41%

Ask: For the compound `O=C(CNC1(CO)CCOCC1)Nc1cccc(F)c1` , give its measured Percent Effect value.
Result: -18.29%

Ask: For the compound `CC(C)S(=O)(=O)N(C)C(=O)c1cc(Br)c2c(c1)OCO2` , give its measured Percent Effect value.
Result: 10.61%

Ask: For the compound CC(C)C(NC(=O)Cn1cnnn1)c1cccs1 (centres undefined) , give its measured Percent Effect value.
Result: 19.15%

Ask: For the compound `CC[C@H](N)C(=O)N(C)Cc1cccc(OC(F)(F)F)c1` , give its measured Percent Effect value.
Result: 4.147%

Ask: For the compound `COc1ncccc1-c1cccc(C#N)n1` , give its measured Percent Effect value.
Result: 5.499%

Ask: For the compound Cn1nccc1C(=O)NC1CCc2ccccc2OC1 (centres undefined) , give its measured Percent Effect value.
Result: 1.645%

Ask: For the compound `O=C(CN1C(=O)CC2(CCCCC2)C1=O)NC1CC1` , give its measured Percent Effect value.
Result: -7.096%

Ask: For the compound `OCCN1CCN(c2ccc3nnnn3n2)CC1` , give its measured Percent Effect value.
Result: 0.916%

Ask: For the compound `Cn1nccc1C(=O)Nc1cnn(CC(F)(F)F)c1` , give its measured Percent Effect value.
Result: -29.38%

Ask: For the compound `Cc1ccc(C(=O)NCCCNCCCN(C)C)cn1` , give its measured Percent Effect value.
Result: 99.75%

Ask: For the compound CCOC(=O)C(O)c1cc(Br)c2c(c1)OCO2 (centres undefined) , give its measured Percent Effect value.
Result: 60.1%

Ask: For the compound `COCCNc1nc(-c2ccc(O)cc2O)cs1` , give its measured Percent Effect value.
Result: 0.3364%

Ask: For the compound `CNC(=O)[C@@H]1CCCN1` , give its measured Percent Effect value.
Result: -5.087%

Ask: For the compound `Cc1ccc(C(=O)NCC(C)(C)N(C)C)cn1` , give its measured Percent Effect value.
Result: -0.683%
